Origin of the recorded values: ChEMBL document CHEMBL1961873

This section presents molecules with their documented inhibition values.
test system: Tyrosine-protein kinase ABL1 (Homo sapiens), P00519 [T315I]; conditions: at 0.1 µM

# molecule, inhibition (%)
rows = [
    ("CCC(=O)Nc1ccc(C)c(-c2ccc(C(=O)NCC3CC3)cc2)c1", 2.76),
    ("NS(=O)(=O)c1ccc(Nc2cc(-c3ccc(O)c(F)c3)n[nH]2)cc1", 0.21),
    ("COc1cc(Nc2ncc(-c3ccccc3)o2)cc(OC)c1OC", 1.79),
    ("CCS(=O)(=O)c1ccc(OC)c(Nc2ncc(-c3ccccc3Cl)o2)c1", 3.23),
    ("CS(=O)(=O)CCNCc1ccc(-c2ccc3ncnc(Nc4ccc(OCc5ccccc5)c(Br)c4)c3c2)o1", 1.53),
    ("Cc1ccc(C(=O)NC(C)C)cc1-c1ccc(C(=O)NCC2CC2)cc1", -1.99),
    ("NC(=O)c1cc(-c2ccc(F)cc2)cc(-c2ccncc2)c1N", 3.32),
    ("O=C(Nc1n[nH]c2nc(-c3ccco3)ccc12)C1CC1", 2.66),
    ("COc1cc2ncn(-c3cc(OCCc4ccccc4)c(C(N)=O)s3)c2cc1OC", 1.49),
    ("Fc1ccc(-c2c(-c3ccncc3)nc3n2CCS3)cc1", 0.05),
    ("C/C(Nc1ccc(S(N)(=O)=O)cc1)=C1/C(=O)Nc2ccccc21", 1.39),
    ("c1ccc(Oc2ccc(Nc3ncc(-c4ccccc4)o3)cc2)cc1", 1.59),
    ("C#Cc1cccc(Nc2ncnc3ccc(OCCCCNCCS(C)(=O)=O)cc23)c1", 3.9),
    ("O=C(NCC1CC1)c1ccc(-c2cccc(C(=O)NC3CC3)c2)cc1", 2.52),
    ("CCc1cccc(CC)c1/C=C/c1cncc(C(=O)NC)c1", 2.72),
    ("c1ccc(-c2n[nH]cc2-c2ccnc(-c3ccc(OCCN4CCOCC4)cc3)c2)nc1", 1.78),
    ("CNC(=O)c1cncc(/C=C/c2c(C)cccc2C)c1", 1.83),
    ("O=C1Nc2ccccc2/C1=C/Nc1ccc(-n2cncn2)cc1", 3.25),
    ("O=C1NC(=O)C(c2cccc(Cl)c2)=C1Nc1ccc(Cl)c(C(=O)O)c1", 1.3),
    ("COc1ccc2ncn(-c3cc(O[C@H](C)c4ccccc4Cl)c(C(N)=O)s3)c2c1", 0.33),
    ("O=C1Nc2ccc(I)cc2C1=Cc1cc(Br)c(O)c(Br)c1", 2.84),
    ("NC(=O)c1cc(-c2ccncc2)cc(-c2ccccc2)c1N", 4.26),
    ("NC(=O)Cc1ccccc1Oc1nccc(-c2c(-c3ccc(F)cc3)ncn2C2CCNCC2)n1", 1.47),
    ("NS(=O)(=O)c1ccc(N/N=C2\\C(=O)Nc3ccc(-c4cnco4)cc32)cc1", 0.71),
    ("Fc1ccc(-c2ncn(C3CCNCC3)c2-c2ccnc(Oc3ccc(Oc4ccccc4)cc3)n2)cc1", 0.61),
    ("Cc1nnc(-c2ccc(C)c(-c3ccc(C(=O)NCc4ccc(Cl)cc4)cc3)c2)o1", 2.23),
    ("N#Cc1ccc(Oc2nccc(-c3c(-c4ccc(F)cc4)ncn3C3CCNCC3)n2)cc1", 3.62),
    ("O=C(Nc1n[nH]c2nc(-c3ccc(O)cc3)c(Br)cc12)C1CC1", 43.5),
    ("Nc1nccc(-c2c(-c3ccc(F)cc3)ncn2C2CCC(O)CC2)n1 (configuration not stated)", 6.26),
    ("COc1ccc(-c2ccc3c(NC(=O)C4CC4)n[nH]c3n2)cc1", 2.42),
    ("CN(c1ccc(NC(=O)Nc2c(Cl)cccc2Cl)cc1)c1ccnc(Nc2cccc(CS(C)(=O)=O)c2)n1", 41.6),
    ("COc1cc2ncn(-c3cc(OCc4cccs4)c(C(N)=O)s3)c2cc1OC", 12.2),
    ("Fc1ccc(-c2ncn(C3CCNCC3)c2-c2ccnc(Oc3ccc4c(c3)OCO4)n2)cc1", 3.51),
    ("COc1cc(C)c(N(C)C(=O)CN(C)C)cc1Nc1nc(Nc2cccc(F)c2C(N)=O)c2cc[nH]c2n1", 0.48),
    ("CS(=O)(=O)CCNCc1cc(-c2cc3c(Nc4ccc(OCc5cccc(F)c5)c(Cl)c4)ncnc3s2)cs1", 4.15),
    ("COc1cc(N2CCN(C(C)C)CC2)ccc1Nc1nc(Nc2ccc(F)cc2C(=O)NC[C@@H](O)CO)c2cc[nH]c2n1", 2.48),
    ("CCS(=O)(=O)c1ccc(OC)c(Nc2ncc(-c3cccc(-c4ccccc4F)c3)o2)c1", 1.82),
]

###

biological target: Receptor tyrosine-protein kinase erbB-4 (Homo sapiens) (UniProt Q15303); settings: at 0.1 µM;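 note: values are averaged percent inhibition of ERBB4 kinase activity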
Sequence (Q15303 whole entry): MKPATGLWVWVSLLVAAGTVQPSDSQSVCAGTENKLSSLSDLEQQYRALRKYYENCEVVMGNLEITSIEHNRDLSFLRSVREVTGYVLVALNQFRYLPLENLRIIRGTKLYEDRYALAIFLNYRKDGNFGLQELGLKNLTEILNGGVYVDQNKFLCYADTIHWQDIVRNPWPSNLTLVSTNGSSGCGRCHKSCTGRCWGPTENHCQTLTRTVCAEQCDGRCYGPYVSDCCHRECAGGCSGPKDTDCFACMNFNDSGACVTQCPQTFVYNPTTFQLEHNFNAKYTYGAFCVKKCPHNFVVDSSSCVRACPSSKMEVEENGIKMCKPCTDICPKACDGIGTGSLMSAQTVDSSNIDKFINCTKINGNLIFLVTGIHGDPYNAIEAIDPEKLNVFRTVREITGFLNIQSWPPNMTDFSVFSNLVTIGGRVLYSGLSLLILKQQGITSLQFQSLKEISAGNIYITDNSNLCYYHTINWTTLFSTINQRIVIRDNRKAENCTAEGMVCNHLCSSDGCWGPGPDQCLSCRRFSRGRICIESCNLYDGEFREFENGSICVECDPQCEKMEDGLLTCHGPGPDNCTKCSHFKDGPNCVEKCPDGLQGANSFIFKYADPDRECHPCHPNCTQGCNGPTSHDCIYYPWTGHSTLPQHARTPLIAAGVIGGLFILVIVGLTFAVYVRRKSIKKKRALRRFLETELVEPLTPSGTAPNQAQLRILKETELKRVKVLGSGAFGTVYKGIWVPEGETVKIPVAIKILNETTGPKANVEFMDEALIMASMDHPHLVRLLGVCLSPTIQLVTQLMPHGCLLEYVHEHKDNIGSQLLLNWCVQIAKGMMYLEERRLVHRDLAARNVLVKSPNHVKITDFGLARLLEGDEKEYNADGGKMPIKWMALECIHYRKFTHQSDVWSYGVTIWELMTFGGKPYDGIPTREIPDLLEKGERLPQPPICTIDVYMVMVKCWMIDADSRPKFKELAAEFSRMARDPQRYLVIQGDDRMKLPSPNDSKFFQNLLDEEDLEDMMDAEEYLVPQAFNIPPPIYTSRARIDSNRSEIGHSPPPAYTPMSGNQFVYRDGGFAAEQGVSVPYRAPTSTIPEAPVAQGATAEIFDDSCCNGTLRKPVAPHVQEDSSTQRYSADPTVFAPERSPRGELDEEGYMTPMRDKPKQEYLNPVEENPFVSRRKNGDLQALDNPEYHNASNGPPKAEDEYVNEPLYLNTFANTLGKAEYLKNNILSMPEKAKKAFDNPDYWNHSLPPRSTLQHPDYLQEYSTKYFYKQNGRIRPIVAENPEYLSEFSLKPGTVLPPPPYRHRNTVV

# compound, target, unit_of_measurement, inhibition
records = [
    ("COc1cc(N2CCN(C(C)C)CC2)ccc1Nc1nc(Nc2ccc(F)cc2C(=O)NC[C@@H](O)CO)c2cc[nH]c2n1", "Receptor tyrosine-protein kinase erbB-4 (Homo sapiens) (UniProt Q15303)", "%", 9.31),
    ("COc1cc(C)c(N(C)C(=O)CN(C)C)cc1Nc1nc(Nc2cccc(F)c2C(N)=O)c2cc[nH]c2n1", "Receptor tyrosine-protein kinase erbB-4 (Homo sapiens) (UniProt Q15303)", "%", 4.41),
    ("O=C(Nc1n[nH]c2nc(-c3ccc(O)cc3)c(Br)cc12)C1CC1", "Receptor tyrosine-protein kinase erbB-4 (Homo sapiens) (UniProt Q15303)", "%", 14.9),
    ("Cc1ccc(C(=O)NC2CCC2)cc1-c1ccc(C(=O)NCC2CC2)cc1", "Receptor tyrosine-protein kinase erbB-4 (Homo sapiens) (UniProt Q15303)", "%", 16.7),
    ("COc1cc2ncn(-c3cc(OCCc4ccccc4)c(C(N)=O)s3)c2cc1OC", "Receptor tyrosine-protein kinase erbB-4 (Homo sapiens) (UniProt Q15303)", "%", 13.8),
    ("CCS(=O)(=O)c1ccc(OC)c(Nc2ncc(-c3cccc(-c4ccccc4F)c3)o2)c1", "Receptor tyrosine-protein kinase erbB-4 (Homo sapiens) (UniProt Q15303)", "%", 5.89),
    ("CNC(=O)c1cncc(/C=C/c2c(C)cccc2C)c1", "Receptor tyrosine-protein kinase erbB-4 (Homo sapiens) (UniProt Q15303)", "%", -1.45),
    ("COc1ccc(C2=C(N3CCc4ccccc43)C(=O)NC2=O)cc1", "Receptor tyrosine-protein kinase erbB-4 (Homo sapiens) (UniProt Q15303)", "%", 8.75),
    ("CN(C)c1ccc2c(c1)/C(=C/Nc1ccc(S(N)(=O)=O)cc1)C(=O)N2", "Receptor tyrosine-protein kinase erbB-4 (Homo sapiens) (UniProt Q15303)", "%", 4.88),
    ("Nc1nccc(-c2c(-c3ccc(F)cc3)ncn2C2CCC(O)CC2)n1 (stereo not drawn)", "Receptor tyrosine-protein kinase erbB-4 (Homo sapiens) (UniProt Q15303)", "%", 6.79),
    ("Clc1ccc(CNc2nccc(-c3cnn4ncccc34)n2)cc1", "Receptor tyrosine-protein kinase erbB-4 (Homo sapiens) (UniProt Q15303)", "%", 3.33),
    ("O=C1Nc2ccc(I)cc2C1=Cc1cc(Br)c(O)c(Br)c1", "Receptor tyrosine-protein kinase erbB-4 (Homo sapiens) (UniProt Q15303)", "%", 5.63),
    ("Fc1ccc(-c2c(-c3ccncc3)nc3n2CCS3)cc1", "Receptor tyrosine-protein kinase erbB-4 (Homo sapiens) (UniProt Q15303)", "%", 2.91),
    ("FC(F)(F)c1cccc(Nc2nccc(-c3cnn4nc(-c5ccccc5)ccc34)n2)c1", "Receptor tyrosine-protein kinase erbB-4 (Homo sapiens) (UniProt Q15303)", "%", 7),
    ("NC(=O)c1cc(-c2ccncc2)cc(-c2ccccc2)c1N", "Receptor tyrosine-protein kinase erbB-4 (Homo sapiens) (UniProt Q15303)", "%", 21.7),
    ("Fc1ccc(-c2nc3n(c2-c2ccncc2)CCS3)cc1", "Receptor tyrosine-protein kinase erbB-4 (Homo sapiens) (UniProt Q15303)", "%", 9.02),
    ("C/C(Nc1ccc(S(N)(=O)=O)cc1)=C1/C(=O)Nc2ccccc21", "Receptor tyrosine-protein kinase erbB-4 (Homo sapiens) (UniProt Q15303)", "%", -5.37),
    ("COc1ccc2cc(-c3c(-c4ccncc4)nc(-c4ccc(S(C)(=O)=O)cc4C)n3C)ccc2c1", "Receptor tyrosine-protein kinase erbB-4 (Homo sapiens) (UniProt Q15303)", "%", 15),
]

###

molecular target: Tyrosine-protein kinase Fyn (Homo sapiens); details: at 1 µM
Description: GSK_PKIS: FYN mean inhibition at 1 uM [Nanosyn]

# molecule, target, inhibition (%)
rows = [
    ("O=C(Nc1n[nH]c2cc(-c3cc(F)ccc3F)ccc12)C1CC1", "Tyrosine-protein kinase Fyn (Homo sapiens)", 6.73),
    ("CN(C)c1ccc2c(c1)/C(=C/Nc1ccc(S(N)(=O)=O)cc1)C(=O)N2", "Tyrosine-protein kinase Fyn (Homo sapiens)", 13.1),
    ("Cc1ccc(NC(=O)c2ccoc2)cc1-c1ccc(C(=O)NCC2CC2)cc1", "Tyrosine-protein kinase Fyn (Homo sapiens)", 1.16),
    ("C[C@@H](Oc1cc(-n2cnc3ccc(OCC4CCN(C)CC4)cc32)sc1C(N)=O)c1ccccc1Cl", "Tyrosine-protein kinase Fyn (Homo sapiens)", 15.3),
    ("C#Cc1cccc(Nc2ncnc3ccc(OCCCCNCCS(C)(=O)=O)cc23)c1", "Tyrosine-protein kinase Fyn (Homo sapiens)", 2.18),
    ("NS(=O)(=O)c1ccc(Nc2cc(-c3ccc(O)c(F)c3)n[nH]2)cc1", "Tyrosine-protein kinase Fyn (Homo sapiens)", 9.16),
    ("COc1cc2ncn(-c3cc(OCc4cccs4)c(C(N)=O)s3)c2cc1OC", "Tyrosine-protein kinase Fyn (Homo sapiens)", 10.6),
    ("COc1ccc2cc(-c3c(-c4ccncc4)nc(-c4ccc(S(C)(=O)=O)cc4C)n3C)ccc2c1", "Tyrosine-protein kinase Fyn (Homo sapiens)", 7.37),
    ("CCN(CC)Cc1ccc(Nc2nccc(-c3cnn4ncccc34)n2)cc1", "Tyrosine-protein kinase Fyn (Homo sapiens)", 5.04),
    ("c1ccc(Oc2ccc(Nc3ncc(-c4ccccc4)o3)cc2)cc1", "Tyrosine-protein kinase Fyn (Homo sapiens)", 2.97),
    ("CCc1cccc(CC)c1/C=C/c1cncc(C(=O)NC)c1", "Tyrosine-protein kinase Fyn (Homo sapiens)", 3.44),
    ("CS(=O)(=O)CCNCc1cc(-c2cc3c(Nc4ccc(OCc5cccc(F)c5)c(Cl)c4)ncnc3s2)cs1", "Tyrosine-protein kinase Fyn (Homo sapiens)", 2.71),
    ("Cc1ccc(C(=O)NC2CCC2)cc1-c1ccc(C(=O)NCC2CC2)cc1", "Tyrosine-protein kinase Fyn (Homo sapiens)", 2.7),
    ("O=C(Nc1n[nH]c2nc(-c3ccc(O)cc3)c(Br)cc12)C1CC1", "Tyrosine-protein kinase Fyn (Homo sapiens)", 14.5),
    ("O=C1Nc2ccccc2/C1=C/Nc1ccc(-n2cncn2)cc1", "Tyrosine-protein kinase Fyn (Homo sapiens)", 7.09),
    ("NS(=O)(=O)c1ccc(N/N=C2\\C(=O)Nc3ccc(-c4cnco4)cc32)cc1", "Tyrosine-protein kinase Fyn (Homo sapiens)", 7.81),
    ("O=C1Nc2ccc(I)cc2C1=Cc1cc(Br)c(O)c(Br)c1", "Tyrosine-protein kinase Fyn (Homo sapiens)", 6.7),
    ("CN(c1ccc(NC(=O)Nc2c(Cl)cccc2Cl)cc1)c1ccnc(Nc2cccc(CS(C)(=O)=O)c2)n1", "Tyrosine-protein kinase Fyn (Homo sapiens)", 12.4),
    ("COc1ccc2cc(-c3c(-c4ccncc4)nc(-c4ccc([S+](C)[O-])cc4C)n3C)ccc2c1 (stereo not drawn)", "Tyrosine-protein kinase Fyn (Homo sapiens)", 1.8),
    ("Fc1ccc(-c2ncn(C3CCNCC3)c2-c2ccnc(Oc3ccc(F)c(F)c3)n2)cc1", "Tyrosine-protein kinase Fyn (Homo sapiens)", -4.44),
    ("NCc1ccc(-n2c(-c3nonc3N)nc3cnccc32)cc1", "Tyrosine-protein kinase Fyn (Homo sapiens)", 0.2),
    ("CN1CCN(CCCNc2nc3ccc(Oc4ccc(NC(=O)Nc5cc(C(F)(F)F)ccc5F)cc4)cc3[nH]2)CC1", "Tyrosine-protein kinase Fyn (Homo sapiens)", -1.88),
    ("Cc1nnc(-c2ccc(C)c(-c3ccc(C(=O)NCc4ccc(Cl)cc4)cc3)c2)o1", "Tyrosine-protein kinase Fyn (Homo sapiens)", -1.62),
    ("NC(=O)c1cc(-c2ccc(F)cc2)cc(-c2ccncc2)c1N", "Tyrosine-protein kinase Fyn (Homo sapiens)", 5.17),
    ("FC(F)(F)c1cccc(Nc2nccc(-c3cnn4nc(-c5ccccc5)ccc34)n2)c1", "Tyrosine-protein kinase Fyn (Homo sapiens)", 7.18),
    ("C[C@@H](Oc1cc(-n2cnc3ccc(OC4CCN(C)CC4)cc32)sc1C(N)=O)c1ccccc1Cl", "Tyrosine-protein kinase Fyn (Homo sapiens)", -4.42),
    ("CCC(=O)Nc1ccc(C)c(-c2ccc(C(=O)NCC3CC3)cc2)c1", "Tyrosine-protein kinase Fyn (Homo sapiens)", 4.1),
    ("c1ccc(-c2n[nH]cc2-c2ccnc(-c3ccc(OCCN4CCOCC4)cc3)c2)nc1", "Tyrosine-protein kinase Fyn (Homo sapiens)", 4.24),
]
